These measurements were taken from patent US11072626B2.

- target-desc: His-tagged recombinant human Gal-3 (hGal-3) (Homo sapiens (Human))
- assay-text: Gal-3 HTRF assay (hGal-3 / B-ASF)
- Format: binding
- test-conditions: 15 nM hGal-3, 15 nM B-ASF, three replicates, room temperature, read-out: hGal3 IC50
Mark each entry class 1 if its IC50 sits below 200 nM, and class 0 for all others.

# molecule, group
records = [
    ("O=C(O)CO[C@@H]1[C@@H](n2cc(-c3ccccc3)nn2)[C@@H](O)[C@@H](CO)O[C@@H]1Sc1ccc(Cl)c(Cl)c1 [Example 46]", "class 0"),
    ("O=C(CO[C@@H]1[C@@H](n2cc(-c3cc(F)c(F)c(F)c3)nn2)[C@@H](O)[C@@H](CO)O[C@@H]1Sc1ccc(Cl)c(Cl)c1)N1CCC(O)CC1 [Example 20]", "class 1"),
    ("O=S(=O)(c1ccc(Cl)c(Cl)c1)[C@@H]1C[C@@H](n2cc(-c3cc(F)c(F)c(F)c3)nn2)[C@@H](O)[C@@H](CO)O1 [Example 61]", "class 1"),
    ("CO[C@@H]1[C@@H](n2cc(-c3cc(F)c(F)c(F)c3)nn2)[C@@H](O)[C@@H](CO)O[C@@H]1[S+]([O-])c1ccc(Cl)c(Cl)c1 (single isomer, unassigned) [Example 2 (isomer-2)]", "class 1"),
    ("O=C(CO[C@@H]1[C@@H](n2cc(-c3cc(F)c(F)c(F)c3)nn2)[C@@H](O)[C@@H](CO)O[C@@H]1[S@@+]([O-])c1ccc(Cl)c(Cl)c1)N1CCOCC1 [Example 37]", "class 1"),
    ("CCOC(=O)CO[C@@H]1[C@@H](n2cc(-c3cc(F)c(F)c(F)c3)nn2)[C@@H](O)[C@@H](CO)O[C@@H]1S(=O)(=O)c1ccc(Cl)c(Cl)c1 [Example 17]", "class 1"),
]

###

- target-desc: His-tagged recombinant human Gal-3 (hGal-3) (Homo sapiens (Human))
- assay-text: Gal-3 HTRF assay (hGal-3 / B-ASF)
- Type: binding
- test-conditions: 15 nM hGal-3, 15 nM B-ASF, table after Example 46, read-out: hGal3 IC50
pIC50: −log10 of the molar value.
Each entry below carries its reported pIC50.

# compound, pIC50
measured = [
    ("O=C(O)CO[C@@H]1[C@@H](n2cc(-c3ccc(F)c(F)c3)nn2)[C@@H](O)[C@@H](CO)O[C@@H]1Sc1ccc(Cl)c(Cl)c1 [Example 55]", 7.15),
    ("Cc1ccccc1-c1cn([C@H]2[C@@H](O)[C@@H](CO)O[C@H](Sc3ccc(Cl)c(Cl)c3)[C@@H]2OCC(=O)O)nn1 [Example 53]", 5.76),
    ("Cc1cccc(-c2cn([C@H]3[C@@H](O)[C@@H](CO)O[C@H](Sc4ccc(Cl)c(Cl)c4)[C@@H]3OCC(=O)O)nn2)c1 [Example 49]", 5.87),
    ("COc1cccc(-c2cn([C@H]3[C@@H](O)[C@@H](CO)O[C@H](Sc4ccc(Cl)c(Cl)c4)[C@@H]3OCC(=O)O)nn2)c1 [Example 48]", 6.13),
    ("O=C(O)CO[C@@H]1[C@@H](n2cc(-c3ccc(Cl)cc3)nn2)[C@@H](O)[C@@H](CO)O[C@@H]1Sc1ccc(Cl)c(Cl)c1 [Example 50]", 6.21),
    ("O=C(O)CO[C@@H]1[C@@H](n2cc(-c3cc(F)cc(F)c3)nn2)[C@@H](O)[C@@H](CO)O[C@@H]1Sc1ccc(Cl)c(Cl)c1 [Example 52]", 6.60),
    ("O=C(O)CO[C@@H]1[C@@H](n2cc(-c3cc(F)ccn3)nn2)[C@@H](O)[C@@H](CO)O[C@@H]1Sc1ccc(Cl)c(Cl)c1 [Example 59]", 5.26),
    ("O=C(O)CO[C@@H]1[C@@H](n2cc(-c3cccc(F)n3)nn2)[C@@H](O)[C@@H](CO)O[C@@H]1Sc1ccc(Cl)c(Cl)c1 [Example 57]", 6.51),
    ("COc1ccc(-c2cn([C@H]3[C@@H](O)[C@@H](CO)O[C@H](Sc4ccc(Cl)c(Cl)c4)[C@@H]3OCC(=O)O)nn2)cc1 [Example 47]", 5.82),
    ("Cc1cc(-c2cn([C@H]3[C@@H](O)[C@@H](CO)O[C@H](Sc4ccc(Cl)c(Cl)c4)[C@@H]3OCC(=O)O)nn2)ccc1F [Example 54]", 6.64),
    ("O=C(O)CO[C@@H]1[C@@H](n2cc(-c3ccc(F)cn3)nn2)[C@@H](O)[C@@H](CO)O[C@@H]1Sc1ccc(Cl)c(Cl)c1 [Example 58]", 6.08),
    ("COC(=O)c1ccc(-c2cn([C@H]3[C@@H](O)[C@@H](CO)O[C@H](Sc4ccc(Cl)c(Cl)c4)[C@@H]3OCC(=O)O)nn2)cc1 [Example 56]", 5.13),
    ("O=C(O)CO[C@@H]1[C@@H](n2cc(-c3ccccc3F)nn2)[C@@H](O)[C@@H](CO)O[C@@H]1Sc1ccc(Cl)c(Cl)c1 [Example 51]", 5.79),
]

###

Each entry below carries its reported IC50.
- target-desc: His-tagged recombinant human Gal-3 (hGal-3) (Homo sapiens (Human), UniProt P17931)
- Sequence (P17931 whole entry): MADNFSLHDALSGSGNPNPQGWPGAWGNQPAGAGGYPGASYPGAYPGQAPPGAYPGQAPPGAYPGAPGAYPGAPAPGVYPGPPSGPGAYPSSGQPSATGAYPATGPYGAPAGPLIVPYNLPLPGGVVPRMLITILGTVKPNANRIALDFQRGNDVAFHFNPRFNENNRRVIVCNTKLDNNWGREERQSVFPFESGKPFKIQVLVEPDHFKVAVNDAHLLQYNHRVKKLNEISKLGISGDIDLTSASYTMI
- assay-text: Gal-3 HTRF assay (hGal-3 / B-ASF)
- Type: binding
- test-conditions: 15 nM hGal-3, 15 nM B-ASF, table after Example 4, read-out: hGal3 IC50

# molecule, target-desc, IC50 [nM]
rows = [
    ("O=C(O)CO[C@@H]1[C@@H](n2cc(-c3cc(F)c(F)c(F)c3)nn2)[C@@H](O)[C@@H](CO)O[C@@H]1Sc1ccc(Cl)c(Cl)c1 [compound 2]", "His-tagged recombinant human Gal-3 (hGal-3) (Homo sapiens (Human), UniProt P17931)", 46),
    ("OC[C@H]1O[C@H](Sc2ccc(Cl)c(Cl)c2)[C@H](OCCN2CCOCC2)[C@@H](n2cc(-c3cc(F)c(F)c(F)c3)nn2)[C@H]1O [compound 5]", "His-tagged recombinant human Gal-3 (hGal-3) (Homo sapiens (Human), UniProt P17931)", 195),
]

###

- target-desc: His-tagged recombinant human Gal-3 (hGal-3) (Homo sapiens (Human), UniProt P17931)
- assay-text: Gal-3 HTRF assay (hGal-3 / B-ASF)
- Assay type: binding
- test-conditions: 15 nM hGal-3, 15 nM B-ASF, three replicates, room temperature, read-out: hGal3 IC50
- Procedure: ASSAY BUFFER Composition: 25 mM HEPES, 100 mM NaCl, 0.005% Tween 20, 0.05% BSA prepared in sterile water (all reagents from Sigma) […] PROTOCOL: The Gal-3 assays were performed in 384 white Opti plates in three replicates at room temperature with gentle shaking at 250-300 rpm From the original stocks, […] working stock concentrations of His-tagged recombinant human Gal-3 (hGal-3) and that of B-ASF were prepared. […] Data analysed using Toolset and Curve Master. […]
pIC50: −log10 of the molar value.

# molecule, target-desc, pIC50
data = [
    ("OC[C@H]1O[C@H](Sc2ccc(Cl)c(Cl)c2)C[C@@H](n2cc(-c3cc(F)c(F)c(F)c3)nn2)[C@H]1O [Example 60]", "His-tagged recombinant human Gal-3 (hGal-3) (Homo sapiens (Human), UniProt P17931)", 5.66),
    ("O=C(CO[C@@H]1[C@@H](n2cc(-c3cc(F)c(F)c(F)c3)nn2)[C@@H](O)[C@@H](CO)O[C@@H]1[S@@+]([O-])c1ccc(Cl)c(Cl)c1)N1CCC[C@H](O)C1 [Example 36]", "His-tagged recombinant human Gal-3 (hGal-3) (Homo sapiens (Human), UniProt P17931)", 7.15),
    ("CO[C@@H]1[C@@H](n2nncc2C(=O)O)[C@@H](O)[C@@H](CO)O[C@@H]1Sc1ccc(Cl)c(Cl)c1 [Example 45]", "His-tagged recombinant human Gal-3 (hGal-3) (Homo sapiens (Human), UniProt P17931)", 5.82),
    ("CO[C@@H]1[C@@H](n2cc(-c3cc(F)c(F)c(F)c3)nn2)[C@@H](O)[C@@H](CO)O[C@@H]1S(=O)(=O)c1ccc(Cl)c(Cl)c1 [Example 3]", "His-tagged recombinant human Gal-3 (hGal-3) (Homo sapiens (Human), UniProt P17931)", 6.95),
    ("CCO[C@@H]1[C@@H](n2cc(-c3cc(F)c(F)c(F)c3)nn2)[C@@H](O)[C@@H](CO)O[C@@H]1[S+]([O-])c1ccc(Cl)c(Cl)c1 (single isomer, unassigned) [Example 9 (isomer-1)]", "His-tagged recombinant human Gal-3 (hGal-3) (Homo sapiens (Human), UniProt P17931)", 7.00),
    ("CO[C@@H]1[C@@H](n2cc(-c3cc(F)c(F)c(F)c3)nn2)[C@@H](O)[C@@H](CO)O[C@@H]1Sc1ccc(Cl)c(Cl)c1 [Example 1]", "His-tagged recombinant human Gal-3 (hGal-3) (Homo sapiens (Human), UniProt P17931)", 6.15),
]
